# System: NCI-H460
# EXPERIMENTAL DETAILS: MTT cytotoxicity assay in normoxia and hypoxia, NCI-H460
# Format: cell-based, Human
# STATED CONDITIONS: Homo sapiens, NCI-H460, 24 h, read-out: Cytotoxicity (IC50) NCI-H460 N
MEASURED ATTRIBUTE: pIC50
To interpret pIC50, take it as minus log10 of a concentration measured in moles per litre.

// below: answered compounds
> print(dat)
                                   compound  target.entity  number
1  [O-][n+]1nc(NCCCNc2n[n+]([O-])c3ccccc3[n+]2[O-])nc2ccccc21 [Compound 9b]       NCI-H460    4.35
2  Nc1n[n+]([O-])c2ccccc2[n+]1[O-] [TPZ, 3-amino-1,2,4-benzotriazine-1,4-dioxide, reference compound]       NCI-H460    4.07
3  NCCCCCCNc1n[n+]([O-])c2ccccc2[n+]1[O-] [Compound 8e]       NCI-H460    3.98

Form: Entry = NCCCCCNc1n[n+]([O-])c2ccccc2[n+]1[O-] [Compound 8d] | System = NCI-H460 | pIC50 = ____
4.00

Form: Entry = NCCCNc1n[n+]([O-])c2ccccc2[n+]1[O-] [Compound 8b] | System = NCI-H460 | pIC50 = ____
4.02

Form: Entry = NCCNc1n[n+]([O-])c2ccccc2[n+]1[O-] [Compound 8a] | System = NCI-H460 | pIC50 = ____
4.73

* * *

# System: HCT-116
# EXPERIMENTAL DETAILS: MTT cytotoxicity assay in normoxia and hypoxia, HCT-116
# Assay type: cell-based, Human
# STATED CONDITIONS: Homo sapiens, HCT-116, read-out: Cytotoxicity (IC50) HCT-116 H
Catalogue of compounds with associated IC50

// below: answered compounds
> print(dat)
                                   compound  measured.attribute   result
1  NCCCCCCCCNc1n[n+]([O-])c2ccccc2[n+]1[O-] [Compound 8g]                IC50  44.8 µM
2  NCCCNc1n[n+]([O-])c2ccccc2[n+]1[O-] [Compound 8b]                IC50  54.8 µM
3  NCCCCCCNc1n[n+]([O-])c2ccccc2[n+]1[O-] [Compound 8e]                IC50  62.9 µM
4  Nc1n[n+]([O-])c2ccccc2[n+]1[O-] [TPZ, 3-amino-1,2,4-benzotriazine-1,4-dioxide, reference compound]                IC50  34.8 µM
5  [O-][n+]1nc(NCCCCCCCCNc2n[n+]([O-])c3ccccc3[n+]2[O-])nc2ccccc21 [Compound 9g]                IC50  > 30 µM

Please turn your attention to the following entry.
Can you look up the measured IC50 of NCCCCCNc1n[n+]([O-])c2ccccc2[n+]1[O-] [Compound 8d] for me?
55.3 µM

* * *

# Test system: HCT-116
# EXPERIMENTAL DETAILS: MTT cytotoxicity assay in normoxia and hypoxia, HCT-116
# Type: cell-based, Human
# STATED CONDITIONS: Homo sapiens, HCT-116, read-out: Cytotoxicity (IC50) HCT-116 H
Catalogue of molecules with associated IC50

// below: answered molecules
> print(dat)
                            chemical.smiles  measured.attribute   result
1  [O-][n+]1nc(NCCCCCCCNc2n[n+]([O-])c3ccccc3[n+]2[O-])nc2ccccc21                IC50  > 30 µM
2  [O-][n+]1nc(NCCCCNc2n[n+]([O-])c3ccccc3[n+]2[O-])nc2ccccc21                IC50  > 30 µM
3  [O-][n+]1nc(NCCCCCNc2n[n+]([O-])c3ccccc3[n+]2[O-])nc2ccccc21                IC50  > 30 µM

Can you look up the measured IC50 of NCCNc1n[n+]([O-])c2ccccc2[n+]1[O-] for me?
22.4 µM

Can you look up the measured IC50 of NCCCCCCCNc1n[n+]([O-])c2ccccc2[n+]1[O-] for me?
40.8 µM

Can you look up the measured IC50 of [O-][n+]1nc(NCCCNc2n[n+]([O-])c3ccccc3[n+]2[O-])nc2ccccc21 for me?
28.7 µM

Can you look up the measured IC50 of [O-][n+]1nc(NCCCCCCNc2n[n+]([O-])c3ccccc3[n+]2[O-])nc2ccccc21 for me?
> 30 µM

Can you look up the measured IC50 of [O-][n+]1nc(NCCNc2n[n+]([O-])c3ccccc3[n+]2[O-])nc2ccccc21 for me?
18.1 µM

Ref: paper PMC4428392
